- SYSTEM_TESTED: HLA A*0201 (Homo sapiens, UniProt P04439, D140Y/D185E/D98H/E176V/E277Q/G131W/G231S/I119V/I121R/I166T/I218V/L300P/L318F/N151K/N90K/P208A/P217A/Q86G/Q94H/R138H/R169H/T345S)
- Construct: Pure Protein, LLC (ran the assay)
- TEST: biochemical
- Format: binding
- CONDITIONS: allele A0201; cell-free competition with fluorescently labeled control peptide, fluorescence polarization at 72 hours; read-out: IC50
Peptide text beside a SMILES is read from it.
# IC50 per record follows
MEASURED_QUANTITY: IC50 (µM)

CC[C@H](C)[C@H](NC(=O)[C@H](CCCCN)NC(=O)[C@H](CC(N)=O)NC(=O)[C@H](CC(C)C)NC(=O)[C@H](Cc1ccc(O)cc1)NC(=O)[C@H](CCC(=O)O)NC(=O)[C@H](CCCCN)NC(=O)[C@@H](NC(=O)[C@@H](N)Cc1c[nH]cn1)[C@@H](C)CC)C(=O)O [Cluster 315_3D7] (H-HIKEYLNKI-OH)    259
CC[C@H](C)[C@H](NC(=O)CNC(=O)[C@H](CC(N)=O)NC(=O)CNC(=O)[C@H](CS)NC(=O)[C@@H](NC(=O)[C@@H](NC(=O)[C@@H](N)CO)C(C)C)[C@@H](C)O)C(=O)N[C@@H](CCC(N)=O)C(=O)N[C@H](C(=O)O)C(C)C [Cluster 335_3D7] (H-SVTCGNGIQV-OH)    489
CC[C@H](C)[C@H](NC(=O)[C@H](CO)NC(=O)[C@H](CO)NC(=O)[C@H](CC(N)=O)NC(=O)[C@@H](NC(=O)[C@@H](NC(=O)[C@H](CC(N)=O)NC(=O)[C@H](Cc1ccccc1)NC(=O)[C@@H](NC(=O)[C@@H](N)CO)C(C)C)C(C)C)C(C)C)C(=O)O [Cluster 376_3D7] (H-SVFNVVNSSI-OH)    342
CC(C)C[C@H](N)C(=O)N[C@@H](CO)C(=O)N[C@H](C(=O)N[C@@H](CCC(=O)O)C(=O)N[C@@H](Cc1c[nH]c2ccccc12)C(=O)N[C@@H](CO)C(=O)N1CCC[C@H]1C(=O)N[C@@H](CS)C(=O)N[C@@H](CO)C(=O)N[C@H](C(=O)O)C(C)C)[C@@H](C)O [327_3D7 (10)] (H-LSTEWSPCSV-OH)    4.38

---

IC50 values, listed per item
- SYSTEM_TESTED: HLA B*4402 (Homo sapiens, UniProt P01889, A223V/A65T/A93T/A95T/D201E/D98Y/E176V/E187L/E204Q/E69K/G107R/H137Y/K202T/L105A/L119I/N104T/N87E/Q56L/Q94N/R106L/R155S/R180D/S101N/S121R/S35A/S48T/T118I/V36M/W191S/Y140D/Y91S)
- TEST: In vitro class I HLA binding competition assay (fluorescence polarization)
- CONDITIONS: allele B4402; cell-free competition with fluorescently labeled control peptide, fluorescence polarization at 72 hours
Peptide text beside a SMILES is read from it.
MEASURED_QUANTITY: IC50

CC[C@H](C)[C@H](NC(=O)[C@H](CCCCN)NC(=O)[C@H](CCCCN)NC(=O)[C@H](CCC(=O)O)NC(=O)[C@@H](NC(=O)[C@H](CC(=O)O)NC(=O)[C@H](CC(N)=O)NC(=O)[C@H](CCC(=O)O)NC(=O)[C@@H](N)Cc1ccc(O)cc1)[C@@H](C)CC)C(=O)O [Cluster 360_CVX298] (H-YENDIEKKI-OH)    7.36 µM
CC[C@H](C)[C@H](NC(=O)[C@H](CC(=O)O)NC(=O)[C@H](CC(N)=O)NC(=O)[C@H](C)NC(=O)[C@H](Cc1ccc(O)cc1)NC(=O)[C@H](CC(=O)O)NC(=O)[C@H](CC(C)C)NC(=O)[C@H](CCC(=O)O)NC(=O)[C@@H](N)CC(=O)O)C(=O)O [Cluster 356_3D7] (H-DELDYANDI-OH)    277 µM
